# assayed-target: rat P2X7R (Rattus norvegicus (Rat), UniProt Q64663)
# Sequence (Q64663 whole entry): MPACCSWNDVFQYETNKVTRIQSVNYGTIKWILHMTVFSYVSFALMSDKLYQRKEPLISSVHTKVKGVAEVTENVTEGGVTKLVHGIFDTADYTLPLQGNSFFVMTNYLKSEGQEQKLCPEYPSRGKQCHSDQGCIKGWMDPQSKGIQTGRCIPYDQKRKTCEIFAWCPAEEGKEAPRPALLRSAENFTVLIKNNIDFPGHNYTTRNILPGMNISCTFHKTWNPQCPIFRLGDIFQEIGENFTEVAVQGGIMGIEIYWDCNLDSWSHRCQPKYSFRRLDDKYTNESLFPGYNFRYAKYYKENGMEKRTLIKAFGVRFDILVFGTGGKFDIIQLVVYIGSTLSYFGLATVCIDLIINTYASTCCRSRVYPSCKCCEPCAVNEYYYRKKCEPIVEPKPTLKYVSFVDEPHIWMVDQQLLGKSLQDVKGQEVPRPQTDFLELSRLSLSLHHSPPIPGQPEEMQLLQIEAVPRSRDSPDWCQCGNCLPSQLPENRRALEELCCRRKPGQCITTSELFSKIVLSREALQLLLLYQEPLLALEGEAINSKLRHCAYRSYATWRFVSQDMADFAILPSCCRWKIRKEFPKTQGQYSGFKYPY
# procedure-details: rat P2X7 Ca2+ influx, Screen Quest Fluo-8 No Wash Calcium Assay Kit (FLIPR TETRA)
# Format: cell-based
# cond: Table 4; HEK-293 cells stably transfected with rat P2X7R, BzATP stimulation; read-out: rP2X7 (IC50; nM)
assay-readout: IC50 (nM)

Sample answers from the record:
Cc1ncsc1C(CNC(=O)c1c(F)cccc1Cl)N1CCC(Oc2ccccc2F)CC1 (stereo not shown); 583
Cc1ncsc1C(CNC(=O)c1cccc2ncccc12)N1CCC(Oc2ccc(Cl)cc2)CC1 (stereo not shown); 808
O=C(NCC(c1scnc1C(F)F)N1CCC(Oc2ccc(F)cc2)CC1)c1cccc2ncccc12 (stereo not shown); 144
Cc1ncsc1C(CNC(=O)c1cccc2ncccc12)N1CCC(OCc2cc(F)cc(F)c2)CC1 (stereo not shown); 432
Cc1ncsc1C(CNC(=O)c1c(F)cccc1Cl)N1CCC(Oc2ccc(F)c(F)c2)CC1 (stereo not shown); 380
Cc1ncsc1C(CNC(=O)c1cccc2ncccc12)N1CCC(Oc2cc(F)cc(F)c2)CC1 (stereo not shown); 631
O=C(NCC(c1scnc1C(F)F)N1CCC(OCc2ccccc2F)CC1)c1c(F)cccc1Cl (stereo not shown); 252
Cc1ncsc1C(CNC(=O)c1c(F)cccc1Cl)N1CCC(Oc2ccc(F)cc2)CC1 (stereo not shown); 709

I. Cc1ncsc1C(CNC(=O)c1cccc2ncccc12)N1CCC(OCc2ccc(F)c(F)c2)CC1 (stereo not shown)
II. Cc1ncsc1C(CNC(=O)c1c(F)cccc1Cl)N1CCC(Oc2cc(F)cc(F)c2)CC1 (stereo not shown)
III. O=C(NCC(c1scnc1C(F)F)N1CCC(OCc2ccccc2F)CC1)c1cccc2ncccc12 (stereo not shown)
IV. Cc1ncsc1C(CNC(=O)c1c(F)cccc1Cl)N1CCC(OCc2ccc(Cl)cc2)CC1 (stereo not shown)
Rank the items in ascending order with respect to IC50. Quick reminder: the answer is the labels in the order asked.
III, I, II, IV

A. O=C(NCC(c1scnc1C(F)F)N1CCC(Oc2cccc(F)c2)CC1)c1c(F)cccc1Cl (stereo not shown)
B. O=C(NCC(c1scnc1C(F)F)N1CCC(Oc2cccc(F)c2)CC1)c1cccc2ncccc12 (stereo not shown)
C. Cc1ncsc1C(CNC(=O)c1cccc2ncccc12)N1CCC(OCc2ccc(Cl)cc2)CC1 (stereo not shown)
Rank the items in ascending order with respect to IC50. Quick reminder: the answer is the labels in the order asked.
B, A, C

###

# assayed-target: human P2X7 channel (Homo sapiens (Human), UniProt Q99572)
# Sequence (Q99572 whole entry): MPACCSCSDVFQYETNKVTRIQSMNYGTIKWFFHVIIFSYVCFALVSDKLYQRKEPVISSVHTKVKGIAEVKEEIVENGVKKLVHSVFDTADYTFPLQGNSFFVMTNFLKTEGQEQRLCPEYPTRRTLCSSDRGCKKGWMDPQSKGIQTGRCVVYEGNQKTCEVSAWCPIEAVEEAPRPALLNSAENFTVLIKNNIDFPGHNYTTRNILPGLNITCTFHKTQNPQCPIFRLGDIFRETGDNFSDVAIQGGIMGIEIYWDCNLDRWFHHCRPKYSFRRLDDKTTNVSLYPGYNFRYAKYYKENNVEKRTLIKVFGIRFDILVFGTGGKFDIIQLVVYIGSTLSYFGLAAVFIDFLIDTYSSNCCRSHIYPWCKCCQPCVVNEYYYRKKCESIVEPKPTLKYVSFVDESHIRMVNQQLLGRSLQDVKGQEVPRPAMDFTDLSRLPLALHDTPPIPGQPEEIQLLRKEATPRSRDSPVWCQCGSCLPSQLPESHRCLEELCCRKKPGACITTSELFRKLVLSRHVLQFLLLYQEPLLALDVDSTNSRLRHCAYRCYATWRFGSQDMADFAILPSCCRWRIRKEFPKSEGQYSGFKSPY
# procedure-details: human P2X7 channel assay by automated patch-clamp (QPatch16X), BzATP-evoked current
# Format: cell-based
# cond: HEK-293 cells expressing P2X7, whole-cell voltage clamp, 100 microM BzATP, holding -80 mV; read-out: hP2X7 (IC50; nM)
assay-readout: IC50 (nM)

Sample answers from the record:
O=C(NCC(c1scnc1C(F)F)N1CCC(Oc2cccc(F)c2)CC1)c1c(F)cccc1Cl (stereo not shown) [Compound 29]; 28.9
Cc1ncsc1C(CNC(=O)c1cccc2ncccc12)N1CCC(OCc2ccc(F)cc2)CC1 (stereo not shown) [Compound 13]; 42.1

A. Cc1ncsc1C(CNC(=O)c1cccc2ncccc12)N1CCC(Oc2ccc(F)c(F)c2)CC1 (stereo not shown) [Compound 24]
B. Cc1ncsc1C(CNC(=O)c1c(F)cccc1Cl)N1CCC(OCc2cccc(F)c2)CC1 (stereo not shown) [Compound 3]
Which numeric IC50 is bigger, that of A or that of B ? Lab log: write the label of the selected item as the result.
A
(A: 57.9 nM, B: 5.95 nM)
